Measured abundance fitness, listed per entry.
B1: Zinc finger homeobox protein 3, residues 2147 to 2202; numbered along this chain, Q15911 (parent)
chain: RPRTRITDDQLRVLRQYFDINNSPSEEQIKEMADKSGLPQKVIKHWFRNTLFKERQ

Variants of: B1
method_notes: abundance fitness (aPCA) (normalised: wild type 0, dead -1); higher = more abundant; growth selection in yeast, the domain comes from the species named
experimental_parameters: Homo sapiens
Just the number, please, no unit attached.

# count of solved cases: 5
- sequence_input: "RPRTRITDDQLRVLRQYFDINNSPSEEQIKEMADKSGLPQKVIKWWFRNTLFKERQ [H45W]"
  readout_number: 0.028
- sequence_input: "RPRTRITDDQLRVLRQYFDINNSPSEEQIKEMADKSQLPQKVIKHWFRNTLFKERQ [G37Q]"
  readout_number: -0.245
- sequence_input: "RPRTRITDDQLRVLRQYFDINNSPSEEQIKEMADKSGLPQKVIKHWFRNTLFKYRQ [E54Y]"
  readout_number: -0.277
- sequence_input: "RPRTRITDDQLRVLRQYFDINNSPSEEQIKEMADKSGLPQKVIMHWFRNTLFKERQ [K44M]"
  readout_number: -0.2
- sequence_input: "RPETRITDDQLRVLRQYFDINNSPSEEQIKEMADKSGLPQKVIKHWFRNTLFKERQ [R3E]"
  readout_number: 0.184

Problem: Fill in the blank: the reported abundance fitness of RPRTRITDDQLRVLRQYFDINNSPSEEQIKEMADKSGLPQKVIKHWFRSTLFKERQ [N49S] is ____.
Solution: -0.06

Problem: Fill in the blank: the reported abundance fitness of RPRTSITDDQLRVLRQYFDINNSPSEEQIKEMADKSGLPQKVIKHWFRNTLFKERQ [R5S] is ____.
Solution: 0.088

Problem: Fill in the blank: the reported abundance fitness of RPRTRITDDQLRVLFQYFDINNSPSEEQIKEMADKSGLPQKVIKHWFRNTLFKERQ [R15F] is ____.
Solution: -0.152
